Values compiled from patent US20240059769A1.

# measurement target: T1, cynomolgus monkey (cyno) TSLP (cynomolgus monkey, UniProt A0A7N9CAT7 29-159)
# T1 construct: also called cTSLP; cynomolgus TSLP
# T1 sequence (A0A7N9CAT7 entry or part of it): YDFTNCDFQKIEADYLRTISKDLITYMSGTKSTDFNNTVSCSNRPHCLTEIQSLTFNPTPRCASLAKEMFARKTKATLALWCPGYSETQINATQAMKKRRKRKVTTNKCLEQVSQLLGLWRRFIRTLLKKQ
# test: SPR
assay metric: pKd
Numbers only, as −log10 of the molar value.

Example results:
| binder | assay metric | result number |
| --- | --- | --- |
| BDG38.081 (antibody, V domains shown, IgG1) VH: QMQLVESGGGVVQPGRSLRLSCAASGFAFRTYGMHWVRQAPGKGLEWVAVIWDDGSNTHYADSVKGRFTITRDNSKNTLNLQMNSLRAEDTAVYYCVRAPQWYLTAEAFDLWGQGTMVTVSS VL: SYVLTQPPSVSVAPGQTARITCGGNMIGAYLVHWYQQKPGQAPLLVIYDDVDRPDRIPERFSGSNSGNTATLTISRVEAGDEADYYCQVWDHNTQQMVFGGGTKLTVL | pKd | 11.31 |
| BDG38.128 (antibody, V domains shown, IgG1) VH: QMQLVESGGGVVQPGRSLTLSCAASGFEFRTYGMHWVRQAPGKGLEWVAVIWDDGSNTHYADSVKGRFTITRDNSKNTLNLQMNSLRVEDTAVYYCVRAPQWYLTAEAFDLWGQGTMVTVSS VL: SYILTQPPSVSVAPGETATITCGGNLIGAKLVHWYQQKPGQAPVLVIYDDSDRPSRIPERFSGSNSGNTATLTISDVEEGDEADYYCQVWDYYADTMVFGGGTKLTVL | pKd | 13.31 |
| BDG38.129 (antibody, V domains shown, IgG1) VH: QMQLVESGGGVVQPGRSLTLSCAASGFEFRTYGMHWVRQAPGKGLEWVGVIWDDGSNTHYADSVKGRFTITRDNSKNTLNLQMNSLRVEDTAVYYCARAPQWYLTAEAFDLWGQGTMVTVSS VL: SYILTQPPSVSVAPGQTATITCGGNLIGAKLVHWYQQKPGQAPVLVIYDDSDRPSRIPERFSGSNIGNTATLTISDVEEGDEADYYCQVWDYSSDHMVFGGGTKLTVL | pKd | 10.85 |

From here, focus on the item given below.
## Input Given BDG38.094 (antibody, V domains shown, IgG1) VH: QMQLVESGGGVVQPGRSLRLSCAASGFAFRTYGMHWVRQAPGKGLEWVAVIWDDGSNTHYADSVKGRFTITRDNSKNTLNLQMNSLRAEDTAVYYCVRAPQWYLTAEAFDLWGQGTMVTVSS VL: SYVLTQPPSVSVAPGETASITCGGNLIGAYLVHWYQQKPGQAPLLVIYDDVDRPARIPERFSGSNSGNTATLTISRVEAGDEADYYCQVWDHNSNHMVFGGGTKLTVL , state its recorded pKd.
## Output 11.56
